# Tested on: Human umbilical vein endothelial cells
# assay remarks: inhibition of human umbilical vein endothelial cell growth (MTT)
# Assay type: cell-based
# measurement parameters: Homo sapiens, Endothelial cell, 120 h, rFGF 2 ng/ml, 5-day culture, concentration giving 50% OD value of control, read-out: IC₅₀
outcome measure: IC50 (ng/mL)
Kindly provide the numeric value in ng/mL only, without the unit symbol.

smiles text: CO[C@@H]1[C@H](NC(N)=O)CC[C@]2(CO2)[C@H]1[C@@]1(C)O[C@@H]1CC=C(C)C
tested on: Human umbilical vein endothelial cells
IC50 [ng/mL]: 0.1

smiles text: CO[C@@H]1[C@H](NC(=S)Nc2cccc3ccccc23)CC[C@]2(CO2)[C@H]1[C@@]1(C)O[C@@H]1CC=C(C)C
tested on: Human umbilical vein endothelial cells
IC50 [ng/mL]: 8.13

smiles text: CO[C@@H]1[C@H](NC(=O)OCC(C)C)CC[C@]2(CO2)[C@H]1[C@@]1(C)O[C@@H]1CC=C(C)C
tested on: Human umbilical vein endothelial cells
IC50 [ng/mL]: 0.17

smiles text: CO[C@@H]1[C@H](NS(=O)(=O)c2ccc(C)cc2)CC[C@]2(CO2)[C@H]1[C@@]1(C)O[C@@H]1CC=C(C)C
tested on: Human umbilical vein endothelial cells
IC50 [ng/mL]: 7.04

## Task Requested read-out IC50, target or system Human umbilical vein endothelial cells, entry CO[C@@H]1[C@H](N(C)C(C)=O)CC[C@]2(CO2)[C@H]1[C@@]1(C)O[C@@H]1CC=C(C)C
## Result 3.21

## Task Form field - read-out: IC50; system: Human umbilical vein endothelial cells; submitted item: CO[C@@H]1[C@H](NC(C)=O)CC[C@]2(CO2)[C@H]1[C@@]1(C)O[C@@H]1CC=C(C)C
## Result 0.06
